# TARGET OR SYSTEM: UniProt Q9NZQ7
# ASSAY SUMMARY: Enzyme-Linked Immunosorbent Assay (ELISA), PD-1/PD-L1 binding
# STATED CONDITIONS: human PD-1/PD-L1 ELISA, plates coated with human PD-L1
pIC50: −log10 of the molar value.
Provide the recorded pIC50 for the entries that follow.

Below, each entry is followed by its recorded pIC50 result.
INSERT INTO results (compound, target_or_system, experimental_value) VALUES
  ('COc1cc(-c2cccc(-c3cccc(NC(=O)c4cncn(C)c4=O)c3C)c2C)cc(F)c1CN[C@@H]1CCC[C@H]1O', 'UniProt Q9NZQ7', '> 8.00'),
  ('COc1cc(-c2cccc(-c3cccc(Nc4nccc5nccnc45)c3C)c2C)cc(F)c1CNCc1c[nH]c(=O)[nH]c1=O', 'UniProt Q9NZQ7', '6.00 to 8.00'),
  ('COc1cc(-c2cccc(-c3cccc(NC(=O)c4c[nH]c(=O)n(C)c4=O)c3C)c2C)cc(F)c1CN(C)[C@@H]1CNC(=O)C1', 'UniProt Q9NZQ7', '6.00 to 8.00'),
  ('COc1cc(-c2cccc(-c3cccc(NC(=O)c4cn(C)c(=O)n(C)c4=O)c3Cl)c2Cl)cc(F)c1CN[C@@H]1CCOC[C@H]1O', 'UniProt Q9NZQ7', '> 8.00'),
  ('COc1cc(-c2cccc(-c3cccc(NC(=O)c4cccn(C)c4=O)c3C)c2C)cc(F)c1CNC[C@H]1CCC(=O)N1', 'UniProt Q9NZQ7', '> 8.00');

Look up pIC50 for the entries below, preserving their order.
1. COc1cc(-c2cccc(-c3cccc(NC(=O)c4cn(C)c(=O)n(C)c4=O)c3C)c2C)cc(F)c1CN[C@@H]1CCC[C@@H]1O
2. COc1cc(-c2cccc(-c3cccc(NC(=O)c4cn(C)c(=O)n(C)c4=O)c3C)c2C)cc(F)c1CN[C@H]1CCC[C@@H]1O
3. COc1cc(-c2cccc(-c3cccc(NC(=O)c4nn(C)c(=O)n(C)c4=O)c3C)c2C)cc(F)c1CN[C@@H]1CCC(=O)NC1
4. COc1cc(-c2cccc(-c3cccc(NC(=O)c4nn(C)c(=O)n(C)c4=O)c3C)c2C)cc(F)c1CNC1CNC(=O)NC1=O (stereo not shown)
5. COc1cc(-c2cccc(-c3cccc(NC(=O)c4cn(C)c(=O)n(C)c4=O)c3C)c2C)cc(F)c1CN[C@@H]1CNC(=O)C1

["> 8.00", "> 8.00", "> 8.00", "6.00 to 8.00", "> 8.00"]

Look up pIC50 for the entries below, preserving their order.
1. COc1cc(-c2cccc(-c3cccc(NC(=O)c4c[nH]c(=O)n(C)c4=O)c3C)c2C)cc(F)c1CNC1CCNC(=O)C1 (stereo not shown)
2. COc1cc(-c2cccc(-c3cccc(NC(=O)c4cn(C)c(=O)n(C)c4=O)c3C)c2C)cc(F)c1CN(C)[C@@H]1CNC(=O)C1
3. COc1cc(-c2cccc(-c3cccc(NC(=O)c4cn(C)c(=O)n(C)c4=O)c3C)c2F)cc(F)c1CN[C@@H]1CNC(=O)C1

1. > 8.00
2. > 8.00
3. > 8.00

---

# TARGET OR SYSTEM: human PD-L1 (Homo sapiens (Human), UniProt Q9NZQ7)
# Sequence (Q9NZQ7 19-239): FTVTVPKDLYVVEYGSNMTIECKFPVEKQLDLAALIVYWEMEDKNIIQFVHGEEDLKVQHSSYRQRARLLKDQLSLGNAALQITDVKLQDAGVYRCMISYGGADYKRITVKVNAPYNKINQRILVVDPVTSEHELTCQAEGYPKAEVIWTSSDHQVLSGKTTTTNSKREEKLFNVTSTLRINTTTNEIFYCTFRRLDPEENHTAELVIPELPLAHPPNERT
# ASSAY SUMMARY: Enzyme-Linked Immunosorbent Assay (ELISA), PD-1/PD-L1 binding
# STATED CONDITIONS: human PD-1/PD-L1 ELISA, plates coated with human PD-L1
pIC50: −log10 of the molar value.
VALUE TYPE: pIC50

Below, each entry is followed by its recorded pIC50 result.
INSERT INTO assay_data (compound, experimental_value) VALUES
  ('COc1cc(-c2cccc(-c3cccc(NC(=O)c4cn(C)c(=O)n(C)c4=O)c3C)c2C)cc(F)c1CNC1CCOCC1', '> 8.00'),
  ('COc1cc(-c2cccc(-c3cccc(NC(=O)c4cncn(C)c4=O)c3C)c2C)cc(F)c1CN(C)C[C@H]1CCC(=O)N1', '6.00 to 8.00'),
  ('COc1cc(-c2cccc(-c3cccc(NC(=O)c4nn(C)c(=O)n(C)c4=O)c3C)c2C)cc(F)c1CN[C@@H]1CNC(=O)C1', '> 8.00'),
  ('COc1cc(-c2cccc(-c3cccc(NC(=O)c4c[nH]c(=O)n(C)c4=O)c3C)c2C)cc(F)c1CN1CCNC(=O)C1', '5.00 to 6.00'),
  ('COc1cc(-c2cccc(-c3cccc(NC(=O)c4cn(C)c(=O)n(C)c4=O)c3C)c2Cl)cc(F)c1CN[C@H]1CCC(=O)NC1', '> 8.00');

Look up pIC50 for the entries below, preserving their order.
1. COc1cc(-c2cccc(-c3cccc(NC(=O)c4cn(C)c(=O)n(C)c4=O)c3C)c2C)cc(F)c1CN[C@@H]1CCOC[C@H]1O
2. COc1cc(-c2cccc(-c3cccc(Nc4nccc5nccnc45)c3C)c2C)cc(F)c1CNCc1ccn[nH]1
3. COc1cc(-c2cccc(-c3cccc(NC(=O)c4nn(C)c(=O)n(C)c4=O)c3C)c2C)cc(F)c1CNCC(C)(C)C(N)=O
4. COc1cc(-c2cccc(-c3cccc(NC(=O)c4cccn(C)c4=O)c3C)c2C)cc(F)c1CN[C@H]1CNC(=O)C1

> 8.00
6.00 to 8.00
> 8.00
> 8.00
